Hey, just so you know, these numbers are from patent US9822099B2.

Test system: Pyrenophora teres
Assay: Example C: in vivo preventive test on Pyrenophora teres (net blotch on barley)
Settings: 100 ppm of active ingredient; barley plants, preventive spray; evaluated 14 days after inoculation
Procedure: The young plants of barley are treated by spraying the active ingredient prepared as described above. Control plants are treated only with an aqueous solution of acetone/Dimethyl sulfoxide/Tween®. After 24 hours, the plants are contaminated by spraying the leaves with an aqueous suspension of Pyrenophora teres spores.
value kind: Eff. % (%)
Please reply with the bare figure in % and do not write the unit itself.

# annotated cases, reported Eff. % shown
| compound | test target | endpoint unit | reported measurement |
| --- | --- | --- | --- |
| OC(Cc1ccncc1F)(Cn1cncn1)C1(F)CC1 (centres unmarked) | Pyrenophora teres | % | 75 |
| OC(Cc1ccncc1Cl)(Cn1cncn1)C1(F)CC1 (centres unmarked) | Pyrenophora teres | % | 92 |
| OC(Cc1ccc2ccccc2n1)(Cn1cncn1)C1(Cl)CC1 (centres unmarked) | Pyrenophora teres | % | 83 |
| OC(Cc1cccnc1Cl)(Cn1cncn1)C1(F)CC1 (centres unmarked) | Pyrenophora teres | % | 97 |

Lookup result for OC(Cc1ccncc1F)(Cn1cncn1)C1(Cl)CC1 (centres unmarked) ; measured Eff. %: 83

----------
test system: Botrytis cinerea; test: Example A: in vivo preventive test on Botrytis cinerea (grey mould); settings: 500 ppm of active ingredient; gherkin plants, preventive spray; evaluated 4 to 5 days after inoculation
Reported values of Eff. % for individual entries
Please reply with the bare figure in % and do not write the unit itself.

| molecule | Eff. % / % |
| --- | --- |
| OC(Cc1cc(F)ncc1Cl)(Cn1cncn1)C1(Cl)CC1 (racemic) [Example I-89] | 100 |
| CC1(C(O)(Cc2ccncc2Cl)Cn2cncn2)CC1 (stereo not shown) [Example I-49] | 99 |
| OC(Cc1nccnc1Br)(Cn1cncn1)C1(Cl)CC1 (racemic) [Example I-71] | 100 |

// switching to the query molecule
Per the reported Botrytis cinerea data, OC(Cc1ccncc1Cl)(Cn1cncn1)C1CCC1 (racemic) [Example I-77] has Eff. % of 100

----------
tested on: Pyricularia oryzae; assay type: in vivo; conditions: 500 ppm of active ingredient; rice, preventive; evaluated 8 days after inoculation
Reported values of Eff. % for individual entries
Please reply with the bare figure in % and do not write the unit itself.

# annotated cases, reported Eff. % shown
| molecule | Eff. % [%] |
| --- | --- |
| OC(Cc1ccc(Cl)nc1Cl)(Cn1cncn1)C1(Cl)CC1 (stereo not shown) | 80 |
| OC(Cc1cccnc1F)(Cn1cncn1)C1(Cl)CC1 (stereo not shown) | 80 |
| OC(Cc1ccncc1Cl)(Cn1cncn1)C1(Cl)CC1 (stereo not shown) | 75 |
| CC(CF)(CF)C(O)(Cc1ccncc1Cl)Cn1cncn1 (stereo not shown) | 83 |
| CC1(C(O)(Cc2cccnc2Cl)Cn2cncn2)CC1 (stereo not shown) | 100 |
| CC(C)(F)C(O)(Cc1ccncc1Cl)Cn1cncn1 (racemic) | 71 |
| OC(Cc1ccncc1Cl)(Cn1cncn1)C1CCC1 (racemic) | 86 |
| OC(Cc1ccnc(Cl)c1Cl)(Cn1cncn1)C1(Cl)CC1 (racemic) | 100 |
| OC(Cc1cccnc1Cl)(Cn1cncn1)C1(Cl)CC1 (stereo not shown) [Example I-3] | 100 |

Lookup result for OC(Cc1cccc(Cl)n1)(Cn1cncn1)C1(Cl)CC1 (stereo not shown) ; measured Eff. %: 70

----------
details: pH 2.7
Marks after values point to notes of the source that are not given here.
value kind: LogP

| compound | LogP |
| --- | --- |
| C[Si](C)(C)OC(Cc1cnccn1)(Cn1cncn1)C1(Cl)CC1 (stereo not drawn) [Example I-28] | 2.75^[a] |
| OC(Cc1cccc(Cl)c1)(Cc1ccnc(Cl)c1)Cn1cncn1 (stereo not drawn) [Example I-37] | 2.42^[a] |
| OC(CCc1ccc(Cl)cc1)(Cc1ccncc1Cl)Cn1cncn1 (racemic) [Example I-69] | 2.40^[a] |
| OC(Cc1cncc(Cl)n1)(Cn1cncn1)C1(Cl)CC1 (stereo not drawn) [Example I-9] | 1.72^[a] |

Lookup result for OC(Cc1ccnc(Cl)c1F)(Cn1cncn1)C1(F)CC1 (racemic) [Example I-87] ; measured LogP: 1.23^[a]

Lookup result for OC(Cc1cc(Cl)cnc1Cl)(Cn1cncn1)C1(Cl)CC1 (racemic) [Example I-83] ; measured LogP: 2.53^[a]

Lookup result for CC(C)(Oc1ccc(F)cc1)C(O)(Cc1ccncc1Cl)Cn1cncn1 (racemic) [Example I-91] ; measured LogP: 2.48^[a]

Lookup result for OC(Cc1ncccc1Cl)(Cn1cncn1)C1(Cl)CC1 (stereo not drawn) [Example I-2] ; measured LogP: 2.28^[a]

Lookup result for OC(Cc1cc(Cl)cc(Cl)n1)(Cn1cncn1)C1(Cl)CC1 (stereo not drawn) [Example I-17] ; measured LogP: 2.76^[a]

----------
Reported values of LogP for individual entries
details: pH 7.8

# annotated cases, reported LogP shown
| compound | value kind | reported measurement |
| --- | --- | --- |
| CC(C)(Oc1ccc(F)cc1)C(O)(Cc1ccncc1Cl)Cn1cncn1 (racemic) | LogP | 2.60^[b]; |
| CC(C)(CCl)C(O)(Cc1ccncc1Cl)Cn1cncn1 (racemic) | LogP | 1.96^[b]; |
| OC(Cc1cccnc1Cl)(Cn1cncn1)C1(Cl)CC1 (single isomer, unassigned) [Example I-95] | LogP | 1.79^[b]; |

// switching to the query compound
Lookup result for OC(Cc1cccnc1Cl)(Cn1cncn1)C1(Cl)CC1 (single isomer, unassigned) [Example I-94] ; measured LogP: 1.79^[b];

----------
Reported values of LogP for individual entries
conditions: method [a]: LC-MS at pH 2.7, 0.1% formic acid in water / acetonitrile gradient

# annotated cases, reported LogP shown
| molecule | LogP |
| --- | --- |
| Clc1ccc(CC2(C3(Cl)CC3)CO2)cn1 (stereo not drawn) [XII-2] | 2.84 |
| FC1(C2(Cc3cccnc3Cl)CO2)CC1 (stereo not drawn) [XII-23] | 2.18^[a] |
| O=C(Cc1ccc(Cl)nc1)C1(Cl)CC1 [Example V-6] | 2.34^[a] |
| CC1(C(=O)Cc2cccnc2Cl)CC1 [Example V-9] | 1.96^[a] |
| O=C(Cc1c(Cl)ccnc1Cl)C1(Cl)CC1 [Example V-20] | 2.96^[a] |

// switching to the query molecule
Lookup result for Clc1ncccc1CC1(C2(Cl)CC2)CO1 (stereo not drawn) [XII-5] ; measured LogP: 2.69^[a]

----------
Reported values of LogP for individual entries
conditions: pH 2.7
Marks after values point to notes of the source that are not given here.

| molecule | LogP |
| --- | --- |
| OC(Cc1ccncc1F)(Cn1cncn1)C1(Cl)CC1 (stereo not shown) [Example I-18] | 1.29^[a] |
| OC(Cc1cc(Oc2ccc(Cl)cc2)nnc1Cl)(Cn1cncn1)C1(Cl)CC1 (stereo not shown) [Example I-55] | 3.08^[a] |

Lookup result for OC(Cc1ccccc1F)(Cc1cc(F)ncc1Cl)Cn1cncn1 (racemic) [Example I-64] ; measured LogP: 2.46^[a]

Lookup result for CC1(C(O)(Cc2ccncc2Cl)Cn2cncn2)CC1 (stereo not shown) [Example I-49] ; measured LogP: 1.57^[a]

Lookup result for OC(Cc1cccc(Cl)c1)(Cc1ccnc(Cl)c1F)Cn1cncn1 (racemic) [Example I-88] ; measured LogP: 2.02^[a]

Lookup result for CC(CF)(CF)C(O)(Cc1ccnc(Cl)c1)Cn1cncn1 (stereo not shown) [Example I-36] ; measured LogP: 1.66^[a]

Lookup result for OC(Cc1cc(Cl)ccn1)(Cn1cncn1)C1(Cl)CC1 (stereo not shown) [Example I-47] ; measured LogP: 2.02^[a]

Lookup result for OC(Cc1ccncc1Cl)(Cn1cncn1)c1cccnc1Cl (stereo not shown) [Example I-14] ; measured LogP: 1.23^[a]

Lookup result for OC(Cc1ccccc1F)(Cc1ccnc(Cl)c1F)Cn1cncn1 (racemic) [Example I-85] ; measured LogP: 1.73^[a]

Lookup result for OC(Cc1ncc(Cl)cc1Cl)(Cn1cncn1)C1(Cl)CC1 (stereo not shown) [Example I-97] ; measured LogP: 2.88^[a]

----------
system: Botrytis cinerea; assay: Example A: in vivo preventive test on Botrytis cinerea (grey mould); conditions: 500 ppm of active ingredient; gherkin plants, preventive spray; evaluated 4 to 5 days after inoculation
value kind: Eff. % (%)
Please reply with the bare figure in % and do not write the unit itself.

# annotated cases, reported Eff. % shown
| compound | value kind | reported measurement |
| --- | --- | --- |
| OC(Cc1cccnc1F)(Cn1cncn1)C1(Cl)CC1 (stereo not drawn) | Eff. % | 100 |
| OC(Cc1ccc(Cl)nc1Cl)(Cn1cncn1)C1(Cl)CC1 (stereo not drawn) | Eff. % | 100 |
| OC(Cc1ccnc(Cl)c1F)(Cn1cncn1)C1(Cl)CC1 (stereo not drawn) | Eff. % | 100 |

Lookup result for OC(COc1ccc(F)cc1)(Cc1ccncc1Cl)Cn1cncn1 (racemic) ; measured Eff. %: 99

Lookup result for CC(C)(CCl)C(O)(Cc1ccncc1Cl)Cn1cncn1 (racemic) ; measured Eff. %: 100

Lookup result for OC(Cc1ccnc(Cl)c1)(Cn1cncn1)C1(Cl)CC1 (stereo not drawn) ; measured Eff. %: 99

Lookup result for OC(Cc1ccncc1C(F)(F)F)(Cn1cncn1)C1(Cl)CC1 (racemic) ; measured Eff. %: 99

Lookup result for OC(Cc1cccc(Cl)n1)(Cn1cncn1)C1(Cl)CC1 (stereo not drawn) ; measured Eff. %: 94

Lookup result for OC(Cc1c(Cl)cncc1Cl)(Cn1cncn1)C1(F)CC1 (racemic) ; measured Eff. %: 100
